# Test system: M. mycetomatis genome strain MM55
# assay.name: CLSI M38-A2 based in vitro susceptibility screening (XTT or resazurin), growth at fixed concentration
# Type: cell-based, Madurella mycetomatis
# particulars: Madurella mycetomatis, 25 uM, replicate C, MM55; read-out: Percentage survival at 25um, 25 uM C
parameter.measured: activity at 25 µM (%)

INSERT INTO measurements (compound, readout_value) VALUES
  ('CSc1ccc2c(c1)C(N1CCN(C)CC1)Cc1ccccc1S2 (stereo not shown)', 6.61),
  ('O=C(O)C[C@H]1CC[C@H](c2ccc(-c3ccc(Nc4ccc(C(F)(F)F)nc4)cn3)cc2)CC1', 85.2),
  ('C=C(C)[C@@H]1CC[C@]2(C(=O)O)CC[C@]3(C)[C@H](CC[C@@H]4[C@@]5(C)CC[C@H](O)C(C)(C)[C@@H]5CC[C@]43C)[C@@H]12', 77.1),
  ('CC(C)CCN1C(=O)C(C2=NS(=O)(=O)c3cc(NS(C)(=O)=O)ccc3N2)=C(O)[C@@H]2[C@H]3CC[C@H](C3)[C@@H]21', 89.2),
  ('FC(F)(F)c1cc(C(F)(F)F)c2ccc3nc(-c4nnco4)cn3c2n1', 77.9),
  ('Cc1c(F)cccc1NC(=O)Nc1ccc(Cl)c(S(=O)(=O)[C@H]2CCCNC2)c1O', 80.7),
  ('CN(C)CCCNC(=O)c1ccc(-c2cc(O)c3ncccc3c2)cc1', 14.8),
  ('CCC[C@H](NC(=O)[C@@H]1[C@H]2CCC[C@H]2CN1C(=O)[C@@H](NC(=O)[C@@H](NC(=O)c1cnccn1)C1CCCCC1)C(C)(C)C)C(=O)C(=O)NC1CC1', 72.5),
  ('O=C(Nc1ccc(N2CCN(C(=O)c3ccccc3)CC2)cc1)c1ccc2c(c1)OCO2', 101),
  ('c1cnc(NCc2ccc(CNc3ncccn3)cc2)nc1', 83.1);
